Values were extracted from patent US20240343800A1.

Below, each entry is listed with its recorded Kd.
biological target: T1, recombinant human ROR1 extracellular domain protein (human, UniProt Q01973 30-406); assay: biolayer interferometry, TCE immobilized
T1 construct: also called Human/Cyno ROR1
Lab book: enter the figure in nM, no units written.

Previously resolved entries follow.
82H02 VL1.06 (low) (bispecific TCE of Table 29) (bispecific antibody, V domains shown, also called 82H02 v1.06) VH: EVQLLESGGGLVQPGGSLRLSCAASGFTFTSYAMSWVRQAPGKGLEWVSTISGSGGGTYYTDSVKGRFTISRDNSKNTLYLQMNSLRAEDTAVYYCAQGSSIFDYWGQGTLVTVSS VL: EIVLTQSPATLSLSPGERATLSCRASQSVSSYLAWYQQKPGQAPRLLIYDASNRATGIPARFSGSGSGTDFTLTISSLEPEDFAVYYCQQRSNWPPFTFGQGTRLEIK = 99
82H02 VL1.08 (bispecific TCE of Table 29) (bispecific antibody, V domains shown, also called 82H02 v1.08) VH: EVQLLESGGGLVQPGGSLRLSCAASGFTFTSYAMSWVRQAPGKGLEWVSTISGSGGGTYYTDSVKGRFTISRDNSKNTLYLQMNSLRAEDTAVYYCAQGSSIFDYWGQGTLVTVSS VL: EIVLTQSPATLSLSPGERATLSCRASQSVSSYLAWYQQKPGQAPRLLIYDASNRATGIPARFSGSGSGTDFTLTISSLEPEDFAVYYCQQRSNWPPYTFGQGTRLEIK = 166

Request: Look up and state reported Kd for 82H02 (bispecific TCE of Table 29) (bispecific antibody, V domains shown) VH: EVQLLESGGGLVQPGGSLRLSCAASGFTFTSYAMSWVRQAPGKGLEWVSTISGSGGGTYYTDSVKGRFTISRDNSKNTLYLQMNSLRAEDTAVYYCAQGSSIFDYWGQGTLVTVSS VL: EIVLTQSPATLSLSPGERATLSCRASQSVSSYLAWYQQKPGQAPRLLIYDASNRATGIPARFSGSGSGTDFTLTISSLEPEDFAVYYCQQRSNWPPCTFGQGTRLEIK
Result: 5.4
